Cited source: ChEMBL document CHEMBL3352485

Listed here: items and their measured pEC50.
Biological target: UniProt Q969F8
Sequence (Q969F8 whole entry): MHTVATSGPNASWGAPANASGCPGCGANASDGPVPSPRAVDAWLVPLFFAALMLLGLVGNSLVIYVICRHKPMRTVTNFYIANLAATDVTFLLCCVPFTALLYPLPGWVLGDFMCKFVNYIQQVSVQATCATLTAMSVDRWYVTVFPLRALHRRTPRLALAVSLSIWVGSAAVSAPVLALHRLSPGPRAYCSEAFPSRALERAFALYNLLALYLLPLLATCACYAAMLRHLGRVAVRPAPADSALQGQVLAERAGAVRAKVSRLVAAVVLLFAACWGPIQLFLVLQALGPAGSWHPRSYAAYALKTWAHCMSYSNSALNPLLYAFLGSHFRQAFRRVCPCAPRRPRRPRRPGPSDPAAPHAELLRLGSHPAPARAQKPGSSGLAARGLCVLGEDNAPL
Experiment: Agonist activity at human KISS1R transfected in CHO cells assessed as intracellular calcium flux after 24 hrs by functional FLIPR assay
pEC50: −log10 of the molar value. Where a SMILES comes first, the peptide text is derived from it. [ ]: non-standard residue; d: D form. Arg(Me) = CNC(=N)NCCC[C@H](N)C(=O)O; azaGly = NNC(=O)O

Molecule	pEC50
CNC(=N)NCCC[C@H](NC(=O)[C@H](CC(C)C)NC(=O)NNC(=O)[C@H](Cc1ccccc1)NC(=O)[C@@H](NC(=O)[C@H](CC(N)=O)NC(=O)[C@@H](Cc1c[nH]c2ccccc12)NC(=O)[C@H](N)Cc1ccc(O)cc1)C(C)C)C(=O)N[C@@H](Cc1c[nH]c2ccccc12)C(N)=O	9.51
CNC(=N)NCCC[C@H](NC(=O)[C@H](CC(C)C)NC(=O)NNC(=O)[C@H](Cc1ccccc1)NC(=O)[C@@H](NC(=O)[C@H](CC(N)=O)NC(=O)[C@@H](Cc1c[nH]c2ccccc12)NC(=O)[C@@H](Cc1ccc(O)cc1)NC(C)=O)[C@@H](C)O)C(=O)N[C@@H](Cc1c[nH]c2ccccc12)C(N)=O (Ac-[dY][dW]NTF[azaGly]L[Arg(Me)]W-NH2)	9.48
CNC(=N)NCCC[C@H](NC(=O)[C@H](CC(C)C)NC(=O)NNC(=O)[C@H](Cc1ccccc1)NC(=O)[C@@H](NC(=O)[C@H](CC(N)=O)NC(=O)[C@@H](Cc1c[nH]c2ccccc12)NC(=O)[C@@H](Cc1ccc(O)cc1)NC(C)=O)[C@@H](C)O)C(=O)N[C@@H](Cc1ccccc1)C(N)=O	9.03
